Molecular target: cynomolgus monkey (cyno) TIGIT protein (cynomolgus monkey, UniProt A0A7N9I9V4 89-209)
Sequence (A0A7N9I9V4 entry or part of it): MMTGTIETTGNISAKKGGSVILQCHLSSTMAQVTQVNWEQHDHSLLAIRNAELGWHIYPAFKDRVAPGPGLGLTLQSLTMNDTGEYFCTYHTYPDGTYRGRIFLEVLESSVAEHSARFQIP
Assay: SPR, captured mAb
Source text: To prevent unwanted pyroglutamate formation for clones 4.1A4, 4.1 D3, and 7.4A3 (also referred to as 1A4, 1 D3, and 4A3, respectively) and to resolve the issue of unpaired cysteine residues for clones 4.1A4 and 7.4A3, the following optimized anti-TIGIT antibody variants were generated: 4.1A4.C96S.Q1E, 4.1A4.C96Y.Q1E, 4.1 D3.Q1E, 7.4A3.C96S.Q1E, and 7.4A3.C96Y.Q1E (also referred to as 1A4.C96S.Q1E, 1A4.C96Y.Q1E, 1 D3.Q1E, 4A3.C96S.Q1E, and 4A3.C96Y.Q1E, respectively). […]
READOUT KIND: Kd (nM)
# number only, unit nM dropped from output

Sample answers from the record:
{"columns": ["BINDER", "Kd, nM"],
 "data": [
  ["4.1A4.C96S.Q1E (antibody, V domains shown, FR/HVR pieces in order; also called 4.1A4.Q1E.C96S) VH: EVQLVQSGSELKKPGASVKVSCKASGYTLTNYPMNWVRQAPGRGLEWMGWINTNTGSPAYAQDFTERFVFSLDTSVTTAYLQISSLKAEDTAVYYCARTAITSVYHFDYWGQGTLVTVSS VL: DIQLTQSPSFLSASVGDRVTITCRASQGISSYLAWYQQKPGKAPRVLIYGATTLQSGVPSRFSGSESGTEFTLTISSLQPEDLATYYCQKLNSHPSSFGQGTKVEIK", 12.6],
  ["7.4A3 (antibody, V domains shown, OMT rat-derived human antibody; also called 7.4A3.Q1.C96) VH: QVQLVQSGSDLKKPGASVRVSCKASGYTFTSYPMNWVRQAPGHGLEWMGWINTNTGNPTYVQGFTGRFVFSLDTSVNTAYLQISSLKAEDTAVYFCARTGGHTYDSYAFDVWGQGTMVTVSS VL: DIQLTQSPTFLSASVGDRVTITCRASQVISSSLAWYQQNPGKAPKLLIYAASTLQSGVPSRFSGSGSGTEFTLTISSLQPEDFVTYYCQHLHGYPCNFGQGTKVEIK", 2.09],
  ["4.1A4 (antibody, V domains shown, OMT rat-derived human antibody; also called 4.1A4.Q1.C96) VH: QVQLVQSGSELKKPGASVKVSCKASGYTLTNYPMNWVRQAPGRGLEWMGWINTNTGSPAYAQDFTERFVFSLDTSVTTAYLQISSLKAEDTAVYYCARTAITSVYHFDYWGQGTLVTVSS VL: DIQLTQSPSFLSASVGDRVTITCRASQGISSYLAWYQQKPGKAPRVLIYGATTLQSGVPSRFSGSESGTEFTLTISSLQPEDLATYYCQKLNSHPCSFGQGTKVEIK", 2.42]
]}

Now for another entry.
Looking up 7.4A3.C96Y.Q1E (antibody, V domains shown, No entry is tied to this variant by name; built from 7.4A3 with the two named changes (Q1E in the heavy chain, C96Y in HVR-L3); also called 7.4A3.Q1E.C96Y) VH: EVQLVQSGSDLKKPGASVRVSCKASGYTFTSYPMNWVRQAPGHGLEWMGWINTNTGNPTYVQGFTGRFVFSLDTSVNTAYLQISSLKAEDTAVYFCARTGGHTYDSYAFDVWGQGTMVTVSS VL: DIQLTQSPTFLSASVGDRVTITCRASQVISSSLAWYQQNPGKAPKLLIYAASTLQSGVPSRFSGSGSGTEFTLTISSLQPEDFVTYYCQHLHGYPYNFGQGTKVEIK , I see its Kd listed as 35.6

Entry source: patent US20220064286A1
